- Test system: 422866-222-R5-J1-PDC complex spheroid viability
- Procedure details: Anticancer human tumor 422866-222-R5-J1-PDC patient-derived pancreatic adenocarcinoma cell line growth inhibition [POLQ]
- Experimental context: second compound 10 µM; first compound 0.1 µM; stronger effect = lower value
- Method: Multicellular complex tumor spheroid response to Polymerase (POL) inhibitors (novobiocin, ART-558, RP6685) in combination with a variety of drugs and investigational agents in selected tumor cell lines The POL inhibitors (novobiocin, ART-558, and RP6685) were evaluated both individually and in combination with standard of care and investigational anticancer small molecules within a complex spheroid model of solid tumors. . […]
viability, T/C values for the compounds below.
Reported endpoint: viability, T/C (%)

{"columns": ["Compound", "Quantitative result"],
 "data": [
  ["CNCc1ccc(-c2[nH]c3cc(F)cc4c3c2CCNC4=O)cc1 + COC1C(OC(N)=O)C(O)C(Oc2ccc3c(O)c(NC(=O)c4ccc(O)c(CC=C(C)C)c4)c(=O)oc3c2C)OC1(C)C", 102],
  ["CC1COCCN1c1cc(C2(O)CC3CCC(C2)O3)c2cnn(-c3ccn[nH]3)c2n1 (stereo unspecified) + Cc1cccc(N(C)C(=O)C2C(O)CCN2c2nc(C)cc(C(F)(F)F)c2C#N)c1", 45.2],
  ["COc1cccc(OCCCN)c1-c1cc(Nc2cnc(C#N)cn2)n[nH]1 + COC1C(OC(N)=O)C(O)C(Oc2ccc3c(O)c(NC(=O)c4ccc(O)c(CC=C(C)C)c4)c(=O)oc3c2C)OC1(C)C", 38],
  ["O=C(Nc1ccc(O)c(NS(=O)(=O)c2ccc(F)cc2)c1)c1ccc(-c2ccccc2)cc1 + Nc1ccc(C#CCN(C(=O)Cc2ncc(C(F)(F)F)cc2C(F)(F)F)c2ccc(F)cc2)nn1", 85.2],
  ["CNCc1ccc(-c2[nH]c3cc(F)cc4c3c2CCNC4=O)cc1 + Nc1ccc(C#CCN(C(=O)Cc2ncc(C(F)(F)F)cc2C(F)(F)F)c2ccc(F)cc2)nn1", 109],
  ["CCCS(=O)(=O)Nc1ccc(F)c(C(=O)c2c[nH]c3ncc(-c4ccc(Cl)cc4)cc23)c1F + COC1C(OC(N)=O)C(O)C(Oc2ccc3c(O)c(NC(=O)c4ccc(O)c(CC=C(C)C)c4)c(=O)oc3c2C)OC1(C)C", 121],
  ["CCc1cc2c(N3CCc4c(cc(Cn5ccnc5)cc4-c4cn(C)nc4C(F)(F)F)C3=O)ccnc2c(OC)n1 + Nc1ccc(C#CCN(C(=O)Cc2ncc(C(F)(F)F)cc2C(F)(F)F)c2ccc(F)cc2)nn1", 115],
  ["O=c1[nH]cc(F)c(=O)[nH]1 + Nc1ccc(C#CCN(C(=O)Cc2ncc(C(F)(F)F)cc2C(F)(F)F)c2ccc(F)cc2)nn1", 118],
  ["CC1COCCN1c1cc(-c2ccnn2C)c2ccnc(-c3ccn[nH]3)c2n1 (stereo unspecified) + Cc1cccc(N(C)C(=O)C2C(O)CCN2c2nc(C)cc(C(F)(F)F)c2C#N)c1", 58.2],
  ["C=CCn1c(=O)c2cnc(Nc3ccc(N4CCN(C)CC4)cc3)nc2n1-c1cccc(C(C)(C)O)n1 + Nc1ccc(C#CCN(C(=O)Cc2ncc(C(F)(F)F)cc2C(F)(F)F)c2ccc(F)cc2)nn1", 78.7],
  ["Nc1ccn(C2OC(CO)C(O)C2(F)F)c(=O)n1 (stereo unspecified) + COC1C(OC(N)=O)C(O)C(Oc2ccc3c(O)c(NC(=O)c4ccc(O)c(CC=C(C)C)c4)c(=O)oc3c2C)OC1(C)C", 43.7]
]}

###

viability, T/C values for the compounds below.
- Test system: 422866-222-R5-J1-PDC complex spheroid viability
- Procedure details: Anticancer human tumor 422866-222-R5-J1-PDC cell line growth inhibition [POLQ];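 note: spheroids exposed to compounds for one week before readout; percent of DMSO vehicle wells luminescence so 100% = untreated viability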
- Experimental context: second compound 10 µM; first compound 0.1 µM; stronger effect = lower value

{"columns": ["Compound", "Test target", "viability, T/C"],
 "data": [
  ["CC[C@@]1(O)C(=O)OCc2c1cc1n(c2=O)Cc2cc3c(CN(C)C)c(O)ccc3nc2-1 + Cc1cccc(N(C)C(=O)C2C(O)CCN2c2nc(C)cc(C(F)(F)F)c2C#N)c1", "422866-222-R5-J1-PDC complex spheroid viability", "48.8%"],
  ["CCc1c2c(nc3ccc(O)cc13)-c1cc3c(c(=O)n1C2)COC(=O)[C@]3(O)CC + Nc1ccc(C#CCN(C(=O)Cc2ncc(C(F)(F)F)cc2C(F)(F)F)c2ccc(F)cc2)nn1", "422866-222-R5-J1-PDC complex spheroid viability", "28.7%"],
  ["CCc1cc2c(N3CCc4c(cc(Cn5ccnc5)cc4-c4cn(C)nc4C(F)(F)F)C3=O)cc(C)nc2c(OC)n1 + Nc1ccc(C#CCN(C(=O)Cc2ncc(C(F)(F)F)cc2C(F)(F)F)c2ccc(F)cc2)nn1", "422866-222-R5-J1-PDC complex spheroid viability", "112%"]
]}

###

- System: 422866-222-R5-J1-PDC complex spheroid viability
- Procedure details: Anticancer human tumor 422866-222-R5-J1-PDC cell line growth inhibition [POLQ];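 note: spheroids exposed to compounds for one week before readout; percent of DMSO vehicle wells luminescence so 100% = untreated viability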
- Experimental context: second compound 0.1 µM; first compound 0.1 µM; stronger effect = lower value
Reported endpoint: viability, T/C (%)

{"columns": ["Compound", "Reported endpoint", "Measure unit", "Quantitative result"],
 "data": [
  ["CC1COCCN1c1cc(-c2ccnn2C)c2ccnc(-c3ccn[nH]3)c2n1 (stereo not drawn) + Nc1ccc(C#CCN(C(=O)Cc2ncc(C(F)(F)F)cc2C(F)(F)F)c2ccc(F)cc2)nn1", "viability, T/C", "%", 49.3],
  ["O=C(Nc1ccc(O)c(NS(=O)(=O)c2ccc(F)cc2)c1)c1ccc(-c2ccccc2)cc1 + Cc1cccc(N(C)C(=O)C2C(O)CCN2c2nc(C)cc(C(F)(F)F)c2C#N)c1", "viability, T/C", "%", 89.8],
  ["CCCS(=O)(=O)Nc1ccc(F)c(C(=O)c2c[nH]c3ncc(-c4ccc(Cl)cc4)cc23)c1F + Nc1ccc(C#CCN(C(=O)Cc2ncc(C(F)(F)F)cc2C(F)(F)F)c2ccc(F)cc2)nn1", "viability, T/C", "%", 107]
]}

###

- System: 422866-222-R5-J1-PDC complex spheroid viability
- Procedure details: Anticancer human tumor 422866-222-R5-J1-PDC cell line growth inhibition [POLQ];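 note: spheroids exposed to compounds for one week before readout; percent of DMSO vehicle wells luminescence so 100% = untreated viability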
- Experimental context: second compound 0.1 µM; first compound 0.0316 µM; stronger effect = lower value
viability, T/C values for the molecules below.

{"columns": ["Molecule", "Test target", "viability, T/C [%]"],
 "data": [
  ["COc1ccc([C@@H](O)c2cc(-c3ncnc4cc(N5CCOCC5)ccc34)c(F)cc2Cl)nn1 + Nc1ccc(C#CCN(C(=O)Cc2ncc(C(F)(F)F)cc2C(F)(F)F)c2ccc(F)cc2)nn1", "422866-222-R5-J1-PDC complex spheroid viability", 104],
  ["O=C(Nc1ccc(O)c(NS(=O)(=O)c2ccc(F)cc2)c1)c1ccc(-c2ccccc2)cc1 + Nc1ccc(C#CCN(C(=O)Cc2ncc(C(F)(F)F)cc2C(F)(F)F)c2ccc(F)cc2)nn1", "422866-222-R5-J1-PDC complex spheroid viability", 105],
  ["COc1cc2cc(C(=O)CCC(=O)O)sc2cc1OC + COC1C(OC(N)=O)C(O)C(Oc2ccc3c(O)c(NC(=O)c4ccc(O)c(CC=C(C)C)c4)c(=O)oc3c2C)OC1(C)C", "422866-222-R5-J1-PDC complex spheroid viability", 114],
  ["CCc1c2c(nc3ccc(O)cc13)-c1cc3c(c(=O)n1C2)COC(=O)[C@]3(O)CC + COC1C(OC(N)=O)C(O)C(Oc2ccc3c(O)c(NC(=O)c4ccc(O)c(CC=C(C)C)c4)c(=O)oc3c2C)OC1(C)C", "422866-222-R5-J1-PDC complex spheroid viability", 32],
  ["CC(C)n1c(=O)n(C)c2cnc3cc(F)c(-c4ccc(OCCCN5CCCCC5)nc4)cc3c21 + COC1C(OC(N)=O)C(O)C(Oc2ccc3c(O)c(NC(=O)c4ccc(O)c(CC=C(C)C)c4)c(=O)oc3c2C)OC1(C)C", "422866-222-R5-J1-PDC complex spheroid viability", 42.6],
  ["CNCc1ccc(-c2[nH]c3cc(F)cc4c3c2CCNC4=O)cc1 + Nc1ccc(C#CCN(C(=O)Cc2ncc(C(F)(F)F)cc2C(F)(F)F)c2ccc(F)cc2)nn1", "422866-222-R5-J1-PDC complex spheroid viability", 106],
  ["CC1COCCN1c1cc(C2(S(C)(=N)=O)CC2)nc(-c2ccnc3[nH]ccc23)n1 (stereo not given) + Cc1cccc(N(C)C(=O)C2C(O)CCN2c2nc(C)cc(C(F)(F)F)c2C#N)c1", "422866-222-R5-J1-PDC complex spheroid viability", 101],
  ["CC1COCCN1c1cc(-c2ccnn2C)c2ccnc(-c3ccn[nH]3)c2n1 (stereo not given) + COC1C(OC(N)=O)C(O)C(Oc2ccc3c(O)c(NC(=O)c4ccc(O)c(CC=C(C)C)c4)c(=O)oc3c2C)OC1(C)C", "422866-222-R5-J1-PDC complex spheroid viability", 90.1],
  ["CCc1cc2c(N3CCc4c(cc(Cn5ccnc5)cc4-c4cn(C)nc4C(F)(F)F)C3=O)cc(C)nc2c(OC)n1 + Nc1ccc(C#CCN(C(=O)Cc2ncc(C(F)(F)F)cc2C(F)(F)F)c2ccc(F)cc2)nn1", "422866-222-R5-J1-PDC complex spheroid viability", 105],
  ["CCc1c2c(nc3ccc(O)cc13)-c1cc3c(c(=O)n1C2)COC(=O)[C@]3(O)CC + Cc1cccc(N(C)C(=O)C2C(O)CCN2c2nc(C)cc(C(F)(F)F)c2C#N)c1", "422866-222-R5-J1-PDC complex spheroid viability", 38.9],
  ["CCc1cc2c(N3CCc4c(cc(Cn5ccnc5)cc4-c4cn(C)nc4C(F)(F)F)C3=O)ccnc2c(OC)n1 + Nc1ccc(C#CCN(C(=O)Cc2ncc(C(F)(F)F)cc2C(F)(F)F)c2ccc(F)cc2)nn1", "422866-222-R5-J1-PDC complex spheroid viability", 79.7],
  ["O=C(Nc1ccc(O)c(NS(=O)(=O)c2ccc(F)cc2)c1)c1ccc(-c2ccccc2)cc1 + Cc1cccc(N(C)C(=O)C2C(O)CCN2c2nc(C)cc(C(F)(F)F)c2C#N)c1", "422866-222-R5-J1-PDC complex spheroid viability", 85.4],
  ["COc1cc2cc(C(=O)CCC(=O)O)sc2cc1OC + Nc1ccc(C#CCN(C(=O)Cc2ncc(C(F)(F)F)cc2C(F)(F)F)c2ccc(F)cc2)nn1", "422866-222-R5-J1-PDC complex spheroid viability", 87.3],
  ["CCCS(=O)(=O)Nc1ccc(F)c(C(=O)c2c[nH]c3ncc(-c4ccc(Cl)cc4)cc23)c1F + Nc1ccc(C#CCN(C(=O)Cc2ncc(C(F)(F)F)cc2C(F)(F)F)c2ccc(F)cc2)nn1", "422866-222-R5-J1-PDC complex spheroid viability", 115],
  ["C=CC(=O)N1CCN(c2nc(=O)n(-c3c(C)ccnc3C(C)C)c3nc(-c4c(O)cccc4F)c(F)cc23)C(C)C1 (stereo not given) + Cc1cccc(N(C)C(=O)C2C(O)CCN2c2nc(C)cc(C(F)(F)F)c2C#N)c1", "422866-222-R5-J1-PDC complex spheroid viability", 27.8],
  ["CC1COCCN1c1cc(C2(S(C)(=N)=O)CC2)nc(-c2ccnc3[nH]ccc23)n1 (stereo not given) + COC1C(OC(N)=O)C(O)C(Oc2ccc3c(O)c(NC(=O)c4ccc(O)c(CC=C(C)C)c4)c(=O)oc3c2C)OC1(C)C", "422866-222-R5-J1-PDC complex spheroid viability", 104],
  ["CCc1cc2c(N3CCc4c(cc(Cn5ccnc5)cc4-c4cn(C)nc4C(F)(F)F)C3=O)cc(C)nc2c(OC)n1 + Cc1cccc(N(C)C(=O)C2C(O)CCN2c2nc(C)cc(C(F)(F)F)c2C#N)c1", "422866-222-R5-J1-PDC complex spheroid viability", 84.6],
  ["O=C(Nc1ccc(O)c(NS(=O)(=O)c2ccc(F)cc2)c1)c1ccc(-c2ccccc2)cc1 + COC1C(OC(N)=O)C(O)C(Oc2ccc3c(O)c(NC(=O)c4ccc(O)c(CC=C(C)C)c4)c(=O)oc3c2C)OC1(C)C", "422866-222-R5-J1-PDC complex spheroid viability", 92.2],
  ["C#Cc1c(F)ccc2cc(O)cc(-c3ncc4c(N5CC6CCC(C5)N6)nc(OCC56CCCN5CC(F)C6)nc4c3F)c12 (stereo not given) + COC1C(OC(N)=O)C(O)C(Oc2ccc3c(O)c(NC(=O)c4ccc(O)c(CC=C(C)C)c4)c(=O)oc3c2C)OC1(C)C", "422866-222-R5-J1-PDC complex spheroid viability", 92.5],
  ["CC1COCCN1c1cc(-c2ccnn2C)c2ccnc(-c3ccn[nH]3)c2n1 (stereo not given) + Cc1cccc(N(C)C(=O)C2C(O)CCN2c2nc(C)cc(C(F)(F)F)c2C#N)c1", "422866-222-R5-J1-PDC complex spheroid viability", 87]
]}
